- system-tested: recombinant Abl1 kinase (Homo sapiens, UniProt P00519)
- Construct: made in house
- Sequence (P00519 whole entry): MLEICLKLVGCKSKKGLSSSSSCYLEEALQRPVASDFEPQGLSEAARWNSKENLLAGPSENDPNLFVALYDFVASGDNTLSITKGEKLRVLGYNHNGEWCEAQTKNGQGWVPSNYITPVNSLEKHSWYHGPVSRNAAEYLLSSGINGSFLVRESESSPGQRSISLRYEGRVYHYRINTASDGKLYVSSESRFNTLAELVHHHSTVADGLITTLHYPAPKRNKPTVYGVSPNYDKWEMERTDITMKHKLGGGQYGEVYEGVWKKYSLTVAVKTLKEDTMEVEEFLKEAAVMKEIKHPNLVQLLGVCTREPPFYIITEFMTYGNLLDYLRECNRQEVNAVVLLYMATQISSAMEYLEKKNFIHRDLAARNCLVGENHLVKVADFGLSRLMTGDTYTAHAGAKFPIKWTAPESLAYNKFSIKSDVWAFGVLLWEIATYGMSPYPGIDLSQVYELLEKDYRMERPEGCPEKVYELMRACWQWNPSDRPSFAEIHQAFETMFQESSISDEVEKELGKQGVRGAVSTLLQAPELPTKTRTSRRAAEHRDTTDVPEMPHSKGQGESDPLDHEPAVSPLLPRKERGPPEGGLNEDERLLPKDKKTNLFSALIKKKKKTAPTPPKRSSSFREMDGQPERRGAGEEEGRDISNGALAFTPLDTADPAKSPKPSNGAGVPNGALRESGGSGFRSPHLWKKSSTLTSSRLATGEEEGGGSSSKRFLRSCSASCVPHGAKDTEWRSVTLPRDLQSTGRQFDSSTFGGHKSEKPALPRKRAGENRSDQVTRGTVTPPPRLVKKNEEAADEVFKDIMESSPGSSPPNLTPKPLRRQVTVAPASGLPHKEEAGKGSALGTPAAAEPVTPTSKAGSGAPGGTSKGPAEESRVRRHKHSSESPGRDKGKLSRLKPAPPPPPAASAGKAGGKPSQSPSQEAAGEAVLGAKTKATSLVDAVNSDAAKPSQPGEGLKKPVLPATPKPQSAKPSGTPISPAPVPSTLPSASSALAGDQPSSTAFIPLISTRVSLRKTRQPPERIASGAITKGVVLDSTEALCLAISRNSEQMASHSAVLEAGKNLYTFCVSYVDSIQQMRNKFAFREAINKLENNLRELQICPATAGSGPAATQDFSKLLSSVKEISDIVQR
- test-name: Recombinant Abl1 kinase inhibition assay ([γ-33P]ATP, peptide substrate)
- Format: biochemical
- condition-set: from the IC50 of Table S1; read-out: pIC50 (Table S1) (converted)
recorded-endpoint: IC50

In: Give the reported value of IC50 for this record: CC(C)CCn1cnc2c(Nc3cccc(F)c3)nc(Nc3ccc(N4CCN(CCO)CC4)cc3)nc21 [Compound 11e]
Out: 130 nM

In: Give the reported value of IC50 for this record: OCCN1CCN(c2ccc(Nc3nc(Nc4ccccc4)c4ncn(CC5CC5)c4n3)cc2)CC1 [Compound 11a]
Out: 37 nM

In: Give the reported value of IC50 for this record: CCCCCCn1cnc2c(Nc3ccc(F)c(F)c3)nc(Nc3ccc(N4CCN(CCO)CC4)cc3)nc21 [Compound 11i]
Out: 1680 nM

In: Give the reported value of IC50 for this record: CCCCCCn1cnc2c(Nc3cccc(F)c3)nc(Nc3ccc(N4CCN(CCO)CC4)cc3)nc21 [Compound 11h]
Out: 670 nM

In: Give the reported value of IC50 for this record: CN1CCN(c2ccc(Nc3nc(NCc4ccccc4)c4ncn(CC5CC5)c4n3)cc2)CC1 [Compound 13c]
Out: 839 nM

In: Give the reported value of IC50 for this record: CC(C)CCn1cnc2c(Nc3ccccc3)nc(Nc3ccc(N4CCN(CCO)CC4)cc3)nc21 [Compound 11d]
Out: 1240 nM
